# System: mouse (MC3T3-E1) and human (TE-85) osteoblast-line cells
# Assay type: cell-based
# test conditions: 10^-10
Entry flag: t if Osteoblast Cell Proliferation, 3H-thymidine incorporation vs control (100%) reaches 90%; f if it does not.

See these solved cases before continuing.
| molecule | assigned category |
| --- | --- |
| Cc1ccc(S(=O)(=O)N2CCCC(c3ccccc3)=N2)cc1 [Compound 2] | f |
| O=C(c1ccccc1)N1CCCC(c2ccc(Cl)cc2)=N1 [Compound 191] | t |
| COP(=O)(c1ccccc1)N1CCCC(c2ccccc2)=N1 (stereo not drawn) [Compound 252] | f |
| O=[N+]([O-])c1ccc(S(=O)(=O)N2CCCC(c3ccc(Cl)c(Cl)c3)=N2)cc1 [Compound 38] | f |
| CC1(C)CC(c2ccccc2)=NN(C(=O)c2ccc(Cl)c(Cl)c2)C1 [Compound 234] | t |
| CCCCc1ccc(C2=NN(S(=O)(=O)c3ccc4ccccc4c3)CCC2)cc1 [Compound 72] | t |

Q: Could you tell me if the measured Osteoblast Cell Proliferation, 3H-thymidine incorporation vs control (100%) of O=S(=O)(c1cccc2ccccc12)N1CCCC(c2ccc(Cl)cc2)=N1 [Compound 44] reaches 90% or more?
Ans: f

Q: Could you tell me if the measured Osteoblast Cell Proliferation, 3H-thymidine incorporation vs control (100%) of O=C(c1ccc(Br)cc1)N1CCCC(c2ccc(Cl)cc2)=N1 [Compound 198] reaches 90% or more?
Ans: f

----------
# Test system: mouse (MC3T3-E1) and human (TE-85) osteoblast-line cells
# Format: cell-based
# test conditions: 10^-10
outcome measure: Osteoblast Cell Proliferation, 3H-thymidine incorporation vs control (100%)
Write it as a number; the unit % goes unstated.

| compound | assayed system | endpoint value |
| --- | --- | --- |
| O=S(=O)(c1ccc(Cl)cc1)N1CCCC(c2ccc(Cl)c(Cl)c2)=N1 | mouse (MC3T3-E1) and human (TE-85) osteoblast-line cells | 135 |
| CC1CC(c2ccccc2)=NN(C(=O)c2ccc(F)c(F)c2)C1 (racemic) | mouse (MC3T3-E1) and human (TE-85) osteoblast-line cells | 88 |
| Cc1ccc(S(=O)(=O)N2N=C(c3ccccc3)CC3C4C5C=CC(C5)C4CC32)cc1 (stereo not shown) | mouse (MC3T3-E1) and human (TE-85) osteoblast-line cells | 128 |

Q: Please look up its Osteoblast Cell Proliferation, 3H-thymidine incorporation vs control (100%): O=S(=O)(c1cccc2ccccc12)N1CCCC(c2ccc(Cl)cc2)=N1 [Compound 15]
Ans: 123

----------
# assayed system: progestin receptor from rabbit uterus (Oryctolagus cuniculus)
# Construct: Cytosolic progestin receptor were obtained by mixing rabbit uterine tissue with a Tris buffer; from tissue; host or cells: rabbit uterus cytosol
# Sequence (P06186 whole entry): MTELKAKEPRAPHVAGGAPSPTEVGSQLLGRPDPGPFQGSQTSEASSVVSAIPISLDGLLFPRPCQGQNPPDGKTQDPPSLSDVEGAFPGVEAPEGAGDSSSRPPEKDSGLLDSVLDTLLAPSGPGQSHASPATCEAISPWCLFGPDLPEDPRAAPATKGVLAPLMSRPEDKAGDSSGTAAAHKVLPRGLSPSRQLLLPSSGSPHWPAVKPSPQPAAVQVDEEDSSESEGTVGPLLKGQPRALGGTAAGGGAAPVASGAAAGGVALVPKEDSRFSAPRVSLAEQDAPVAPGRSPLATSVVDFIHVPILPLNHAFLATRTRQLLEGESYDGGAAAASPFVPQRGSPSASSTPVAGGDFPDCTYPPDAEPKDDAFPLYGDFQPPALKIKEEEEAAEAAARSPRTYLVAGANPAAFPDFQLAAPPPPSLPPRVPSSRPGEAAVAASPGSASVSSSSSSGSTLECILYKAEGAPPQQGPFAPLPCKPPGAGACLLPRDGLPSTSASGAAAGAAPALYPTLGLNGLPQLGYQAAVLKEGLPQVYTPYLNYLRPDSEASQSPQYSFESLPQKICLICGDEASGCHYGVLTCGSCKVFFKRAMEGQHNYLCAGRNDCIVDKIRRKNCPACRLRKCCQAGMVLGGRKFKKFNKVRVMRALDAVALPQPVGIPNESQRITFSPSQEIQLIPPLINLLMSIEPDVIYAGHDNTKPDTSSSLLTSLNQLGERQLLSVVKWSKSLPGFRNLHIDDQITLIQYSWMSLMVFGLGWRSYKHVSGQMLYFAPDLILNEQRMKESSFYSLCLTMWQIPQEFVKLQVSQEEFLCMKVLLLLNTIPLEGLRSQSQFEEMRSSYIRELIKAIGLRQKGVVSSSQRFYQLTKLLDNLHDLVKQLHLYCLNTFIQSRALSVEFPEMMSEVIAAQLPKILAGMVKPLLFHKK
# assay overview: Progestin receptor binding (3H-R5020 displacement)
# test conditions: rabbit uterine cytosol, 4° C., 18 h, read-out: IC50: Binding affinity for the progestin receptor from rabbit uterus
pIC50: −log10 of the molar value.
Entry flag: Condition met if pIC50 reaches 8; Condition not met if it does not.

See these solved cases before continuing.
| compound | assigned category |
| --- | --- |
| O=S(=O)(c1ccc(Cl)cc1)N1CCCC(c2ccc(-c3ccccc3)cc2)=N1 | Condition not met |
| Cc1ccc(S(=O)(=O)N2N=C(c3ccccc3)CC3CCCC32)cc1 (centres unmarked) | Condition not met |
| O=S(=O)(/C=C/c1ccc(Cl)cc1)N1CCCC(c2ccc(Cl)c(C(F)(F)F)c2)=N1 | Condition met |
| Cc1ccc(S(=O)(=O)N2N=C(c3ccccc3)CC3Cc4ccccc4C32)cc1 (centres unmarked) [Compound 158, Hemihydrate] | Condition not met |
| Fc1ccc(C(=S)N2CCCC(c3ccc(Cl)c(Cl)c3)=N2)cc1Br | Condition not met |
| O=S(=O)(c1ccc(Br)cc1)N1CCCC(c2ccc(Cl)c(Cl)c2)=N1 | Condition met |

Q: Could you tell me if the measured pIC50 of CC(C)OP(=O)(c1ccccc1)N1CCCC(c2ccc(Cl)c(Cl)c2)=N1 (centres unmarked) reaches 8 or more?
Ans: Condition not met

Q: Could you tell me if the measured pIC50 of "CCCCc1ccc(C2=NN(S(=O)(=O)c3ccc(C)cc3)CCC2)cc1" reaches 8 or more?
Ans: Condition not met

Q: Could you tell me if the measured pIC50 of "O=S(=O)(c1ccc(Cl)cc1)N1CCCC(c2ccc(Cl)c(C(F)(F)F)c2)=N1" reaches 8 or more?
Ans: Condition met

Q: Could you tell me if the measured pIC50 of "O=S(=O)(c1ccc(Cl)cc1)N1CCCC(c2ccc(Cl)c(Cl)c2)=N1" reaches 8 or more?
Ans: Condition met

Q: Could you tell me if the measured pIC50 of "O=S(=O)(c1ccc(C(F)(F)F)cc1)N1CCCC(c2ccccc2)=N1" reaches 8 or more?
Ans: Condition not met

Q: Could you tell me if the measured pIC50 of "O=S(=O)(c1ccc(Cl)cc1)N1CCCC(c2ccccc2)=N1" reaches 8 or more?
Ans: Condition not met
